The values you see were collected from patent US8476251B2.

Below, each of the compounds is paired with its reported inhibition at 10 µM value.
# System: Melanoderm tissue equivalent model MEL-300 containing melanocytes obtained from dark skin individuals
# PROTOCOL DESCRIPTION: Melanoderm tissue equivalent model MEL-300, total melanin content (inhibition of melanogenesis)
# Type: cell-based
# STUDY CONDITIONS: Melanocyte, 336 h; 10 μM in maintenance medium, 14 days, total melanin content vs DMSO vehicle control; read-out: Melanoderm (% Reduction at 10 μM)
Report only the number, with the unit % understood.

Some solved entries appear below for comparison.
CN(C)CCN(Cc1ccccc1)CC1CCCCC1 [Compound 3a]: 51.3
Cc1ccc(CN(CCN(C)C)Cc2ccccc2)cc1 [Compound 3g]: 53.2
CCN(CCN(C)C)Cc1ccccc1 [Compound 3j]: -0.1
Cc1cccc(CN(CCN(C)C)Cc2ccccc2)c1 [Compound 3f]: 51.6
CC(c1ccccc1)N(CCN(C)C)Cc1ccccc1 (stereo not drawn) [Compound 11]: 47.8

Would you kindly share the measured inhibition at 10 µM for CCN(CC)CCN(Cc1ccccc1)Cc1ccccc1 [Compound 5d] ?
45.6

Item: CN(C)CCN(CC1CCCCC1)CC1CCCCC1 [Compound 5a]
42.5

Item: c1ccc(CN(CCN2CCCC2)Cc2ccccc2)cc1 [Compound 5e]
40.6

Item: CN(C)CCN(Cc1ccccc1)C(=O)c1ccccc1 [Compound 7]
4.4

Item: CN(C)CCN(Cc1ccccc1)Cc1ccc(F)cc1 [Compound 3i]
47.8

Item: COc1ccc(CN(CCN(C)C)Cc2ccc(OC)cc2)cc1 [Compound 5b]
48.7

Item: Cc1ccccc1CN(CCN(C)C)Cc1ccccc1 [Compound 3e]
46.6

Item: CN(C)CCN(CCc1ccccc1)Cc1ccccc1 [Compound 3c]
51.8

Item: CN(C)CCN(Cc1ccccc1)Cc1ccc2ccccc2c1 [Compound 3d]
56

Item: COc1ccc(CN(CCN(C)C)Cc2ccccc2)cc1 [Compound 3h]
48.8

Item: CN(C)CCN(Cc1ccc(F)cc1)Cc1ccc(F)cc1 [Compound 5c]
49.3

Item: CN(C)CCCN(Cc1ccccc1)Cc1ccccc1 [Compound 5f]
50

Item: CN(C)CCN(Cc1ccccc1)Cc1ccccc1 [Compound 3b]
39.5

###

# Tested on: Melanoderm tissue equivalent model MEL-300 containing melanocytes obtained from dark skin individuals
# PROTOCOL DESCRIPTION: Melanoderm tissue equivalent model MEL-300, total melanin content (inhibition of melanogenesis)
# Assay type: cell-based
# STUDY CONDITIONS: Melanoderm MEL-300, 10 μM, 14 days
RECORDED METRIC: melanogenesis inhibition (in words)

CCN(CCN(C)C)Cc1ccccc1 [Compound 3j]: is not
CN(C)CCN(Cc1ccccc1)C(=O)c1ccccc1 [Compound 7]: is not
